Organism: Rattus norvegicus
test.description: Compound was evaluated for antiinflammatory activity in granuloma bioassay and measured as plasma corticosterone weight
Assay type: functional, organism-based
property: Plasma corticosterone

CCNC(=O)[C@@H](O)[C@@]1(O)CC[C@H]2[C@@H]3CCC4=CC(=O)C=C[C@]4(C)[C@H]3[C@@H](O)C[C@@]21C; 288 ng/mL
C[C@]12C=CC(=O)C=C1CC[C@@H]1[C@@H]2[C@@H](O)C[C@@]2(C)[C@H]1CC[C@]2(O)[C@H](O)C(=O)NCc1ccccc1; 298 ng/mL

Shift focus to the following entry.
// recorded Plasma corticosterone for "CNC(=O)[C@H](O)[C@@]1(O)CC[C@H]2[C@@H]3CCC4=CC(=O)C=C[C@]4(C)[C@H]3[C@@H](O)C[C@@]21C" : 321 ng/mL
